- System: giant foxtail (Setaria faberii)
- procedure_text: Test A preemergence
- Assay type: in vivo
- setup_conditions: Setaria faberi, pre-emergence, 240 h, 125 g ai/ha, preemergence; 0 to 100 scale where 0 is no effect and 100 is complete control; read-out: Foxtail, Giant plant response rating
- Source text: […]
observed_property: pest or weed control at 125 g/ha

>>> result("COc1c(F)ccc([C@H]2CNC(=O)[C@@H]2C(=O)Nc2ccccc2F)c1Cl [Compound 881]")
"80%"
>>> result("COc1ccc(CN2CC[C@H](c3ccc(F)cc3)[C@@H](C(=O)Nc3cccc(F)c3F)C2=O)cc1 [Compound 919]")
"0%"
>>> result("COc1c(F)ccc([C@H]2CNC(=O)[C@@H]2C(=O)Nc2cccc(F)c2F)c1Cl [Compound 882]")
"70%"
>>> result("Cc1cc(C)cc([C@H]2CN(C)C(=O)[C@@H]2C(=O)Nc2ccccc2C(F)(F)F)c1 [Compound 912]")
"90%"

---

- Tested on: giant foxtail (Setaria faberii)
- procedure_text: Test A preemergence
- Format: in vivo
- setup_conditions: 125 g ai/ha, Preemergence; visual injury after approximately 10 d; 0 to 100 scale where 0 is no effect and 100 is complete control
- Source text: […]
Catalogue of Plant response rating, Foxtail, Giant values
observed_property: Plant response rating, Foxtail, Giant

>>> result_number("CN1CC(c2cc(F)cc(F)c2)C(C(=O)Nc2cccc3c2CCCC3)C1=O (stereo not shown)")
80
>>> result_number("O=C1NCC(c2cccc(F)c2F)C1C(=O)Nc1ccccc1F (stereo not shown)")
80
>>> result_number("C=C(C)CN1CC(c2cccc(C(F)(F)F)c2)C(C(=O)Nc2ccccc2F)C1=O (stereo not shown)")
50
>>> result_number("O=C1NCC(c2cc(C(F)(F)F)ccc2F)C1C(=O)Nc1ccccc1F (stereo not shown)")
90
>>> result_number("CN1CC(c2cccc(F)c2)C(C(=O)Nc2ccc(F)cc2F)C1=O (stereo not shown)")
90
>>> result_number("C=CCOc1cccc(C2CNC(=O)C2(CC=C)C(=O)Nc2cccc(F)c2F)c1 (stereo not shown)")
0
>>> result_number("O=C1NCC(c2ccc3c(c2)OC(F)(F)O3)C1C(=O)Nc1cccc(F)c1F (stereo not shown)")
90
>>> result_number("O=C1NCC(c2cccc(Br)c2)C1C(=O)Nc1ccc(F)cc1F (racemic)")
90
>>> result_number("O=C(Nc1ccccc1F)C1C(=O)N(CC=CCl)CC1c1cccc(C(F)(F)F)c1 (stereo not shown)")
70
>>> result_number("CN1CC(c2ccc(Br)cc2)C(C(=O)Nc2ccc(F)cc2F)C1=O (stereo not shown)")
90

---

Catalogue of pest or weed control at 250 g/ha values
- Test system: velvetleaf (Abutilon theophrasti)
- procedure_text: Test G Post-Emergence Protocol
- Format: in vivo
- setup_conditions: Abutilon theophrasti, post-emergence, 312 h, 250 g ai/ha, evaluated after 13 days, read-out: damage to plant, Velvetleaf (100=total damage to plant; 0=no damage to plant)
observed_property: pest or weed control at 250 g/ha (%)

>>> result_number("CN1C[C@@H](c2ccc(C(F)(F)F)nc2)[C@H](C(=O)Nc2ccccc2F)C1=O (racemic)")
0
>>> result_number("Cc1cc(NC(=O)[C@@H]2C(=O)N(C)C[C@H]2c2ccc(C(F)(F)F)cc2)ccn1 (racemic)")
0
>>> result_number("CN1C[C@@H](c2ccc(C(F)(F)F)cc2)[C@H](C(=O)Nc2cn[nH]c2)C1=O (racemic)")
0
>>> result_number("CN1C[C@@H](c2ccc(C(F)(F)F)cc2)[C@H](C(=O)Nc2cnccc2Cl)C1=O (racemic)")
0
>>> result_number("CN1C[C@H](c2cccc(C(F)F)c2)[C@@H](C(=O)Nc2ccccc2F)C1=O (racemic)")
10
>>> result_number("CN1C[C@@H](c2ccc(C(F)(F)F)cc2)[C@H](C(=O)Nc2cccc(Cl)n2)C1=O (racemic)")
60

---

Catalogue of pest or weed control at 250 g/ha values
- Tested on: giant foxtail (Setaria faberi)
- procedure_text: Test G Pre-Emergence Protocol
- Assay type: in vivo
- setup_conditions: Setaria faberi, pre-emergence, 312 h, 250 g ai/ha, evaluated after 13 days, read-out: Foxtail, Giant damage rating (100=total damage to plant; 0=no damage to plant)
observed_property: pest or weed control at 250 g/ha (%)

>>> result_number("CN1C[C@@H](c2ccc(C(F)(F)F)cc2)[C@H](C(=O)Nc2cnccn2)C1=O (racemic)")
0
>>> result_number("COc1c(F)cc(C2CN(C)C(=O)C2C(=O)Nc2cccc(F)c2F)cc1F (stereo not drawn)")
90
>>> result_number("CN1C[C@H](c2ccc(C(F)(F)F)cc2)[C@@H](C(=O)Nc2cnccc2[S+](C)[O-])C1=O (mixture of isomers)")
10
>>> result_number("Cc1ccncc1NC(=O)[C@@H]1C(=O)N(C)C[C@H]1c1ccc(C(F)(F)F)cc1 (racemic)")
30
>>> result_number("COc1c(Cl)ccc([C@H]2CNC(=O)[C@@H]2C(=O)Nc2cccc(F)n2)c1F (racemic)")
40
>>> result_number("CN1C[C@H](c2cccc(C(F)F)c2)[C@@H](C(=O)Nc2cccc(F)c2F)C1=O (racemic)")
90

---

- Test system: ragweed (common ragweed, Ambrosia elatior)
- procedure_text: Test A postemergence
- Assay type: in vivo
- setup_conditions: 125 g ai/ha, postemergence; visual injury rating on 0 to 100 scale (0 no effect, 100 complete control), approx. 10 d
- Text: […]
observed_property: Ragweed plant response rating

>>> result_number("Cc1cc(C2CN(C)C(=O)C2C(=O)Nc2ccccc2C(F)(F)F)ccc1F (stereo not drawn) [Compound 406]")
20
>>> result_number("O=C1NCC(c2c(F)cccc2F)C1C(=O)Nc1cccc(F)c1F (racemic) [Compound 516]")
0
>>> result_number("CN1CC(c2ccc(Cl)cc2)C(C(=O)Nc2ccc(F)cc2F)C1=O (stereo not drawn) [Compound 436]")
0
>>> result_number("CN1CC(c2ccc(Cl)cc2)C(C(=O)Nc2ccccc2S(C)(=O)=O)C1=O (stereo not drawn) [Compound 435]")
40
>>> result_number("Cc1cc(C2CN(C)C(=O)C2C(=O)Nc2cccc(F)c2F)ccc1F (stereo not drawn) [Compound 403]")
0
>>> result_number("CC(C)=CCN1CC(c2cccc(C(F)(F)F)c2)C(C(=O)Nc2ccccc2F)C1=O (stereo not drawn) [Compound 478]")
0
>>> result_number("CN1CC(c2cccc(OC(F)(F)C(F)F)c2)C(C(=O)Nc2ccc(F)c(F)c2F)C1=O (stereo not drawn) [Compound 429]")
30
>>> result_number("O=C1NCC(c2cccc(OC(F)F)c2)C1C(=O)Nc1ccc(F)cc1F (stereo not drawn) [Compound 421]")
20
>>> result_number("COc1cccc(NC(=O)C2C(=O)NCC2c2cccc(OC(F)F)c2)c1F (stereo not drawn) [Compound 426]")
0
>>> result_number("O=C1NCC(c2cccc(O)c2)C1C(=O)Nc1cccc(F)c1F (racemic) [Compound 384]")
0
>>> result_number("C=C(C)CN1CC(c2cccc(C(F)(F)F)c2)C(C(=O)Nc2cccc(F)c2F)C1=O (stereo not drawn) [Compound 479]")
0
>>> result_number("O=C1NCC(c2ccc(C3CC3)cc2)C1C(=O)Nc1cccc(F)c1F (racemic) [Compound 501]")
0

---

Catalogue of pest or weed control at 500 g/ha values
- Tested on: barnyardgrass (Echinochloa crus-galli)
- procedure_text: Test A preemergence
- Format: in vivo
- setup_conditions: Echinochloa crus-galli, pre-emergence, 240 h, 500 g ai/ha, preemergence; 0 to 100 scale where 0 is no effect and 100 is complete control; read-out: Barnyardgrass plant response rating
observed_property: pest or weed control at 500 g/ha

>>> result("COc1cc([C@H]2CN(C)C(=O)[C@@H]2C(=O)Nc2cccc(F)c2C)ccc1F [Compound 1300]")
"90%"
>>> result("COc1ccc([C@H]2CN(C)C(=O)[C@@H]2C(=O)Nc2cccc(F)c2F)c(OC)c1 [Compound 1209]")
"90%"
>>> result("Cc1cc([C@H]2CN(C)C(=O)[C@@H]2C(=O)Nc2ccccc2F)on1 [Compound 1195]")
"80%"
>>> result("Cc1ccccc1NC(=O)[C@H]1C(=O)N(C)C[C@@H]1c1ccc(C(F)(F)F)cc1 [Compound 1239]")
"90%"
>>> result("Cc1c(F)ccc([C@H]2CNC(=O)[C@@H]2C(=O)Nc2ccccc2F)c1F [Compound 1326]")
"90%"
>>> result("Cc1ccc([C@H]2CCN(C)C(=O)[C@@H]2C(=O)Nc2ccc(F)c(F)c2F)cc1 [Compound 1221]")
"100%"
>>> result("Cc1c(F)cccc1NC(=O)[C@H]1C(=O)N(C)C[C@@H]1c1ccc(C(F)(F)F)nc1 [Compound 1197]")
"100%"
>>> result("Cc1c(F)cccc1NC(=O)[C@H]1C(=O)N(C)C[C@@H]1c1cc(F)cc(F)c1 [Compound 1140]")
"100%"
>>> result("CN1C[C@H](c2ccc(F)c(C#N)c2)[C@@H](C(=O)Nc2cccc(F)c2F)C1=O [Compound 1255]")
"100%"
